Source: the supplement of paper PMC11061612

Tested on: HCC-44 (Lung Adenocarcinoma);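 further: after 72 h of two-drug dosing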
methodNotes: Bliss excess, mean over the matrix (fraction); higher = more synergy
endpoint: Bliss excess

C=CCn1c(=O)c2cnc(Nc3ccc(N4CCN(C)CC4)cc3)nc2n1-c1cccc(C(C)(C)O)n1 [AZD1775] + CCc1c2c(nc3ccc(O)cc13)-c1cc3c(c(=O)n1C2)COC(=O)[C@]3(O)CC [SN-38] (first compound max 1 µM, partner max 0.3 µM) ... 0.0458

Bliss excess reading for NC1(C(=O)N[C@@H](CCO)c2ccc(Cl)cc2)CCN(c2ncnc3[nH]ccc23)CC1 [Capivasertib] + C[C@@H]1COCCN1C2=NC(=NC(=C2)C3(CC3)[S@](=N)(=O)C)C4=C5C=CNC5=NC=C4 [AZD6738] (first compound max 10 µM, 7x7, partner max 10 µM) : -0.0298
